System: NCI-H226 lung
Protocol: NCI tumour cell line growth inhibition, 48 h
Measured TGI, listed per entry for reference.

Answered examples (6):
COc1cc2cc(C(=O)N3CC(CCl)c4ccccc43)[nH]c2c(OC)c1OC (stereo not drawn): > 100 µM
CS(=O)(=O)CCNCc1ccc(-c2ccc3ncnc(Nc4ccc(OCc5ccccc5)c(Cl)c4)c3c2)o1: > 22.9 µM
COc1ccc(/C=C2\N=C(NN)N=C2Cl)cc1: > 100 µM
O=[N+]([O-])c1ccc2ncccc2c1Cl: > 100 µM
C=C(Cl)C(=C)CCC(Cl)C(C)C (stereo not drawn): > 100 µM
O=C(NC(Nc1ccc(F)c(Cl)c1)(C(F)(F)F)C(F)(F)F)OCc1ccccc1: > 100 µM

GET /values?readout=TGI&item= "C[C@]12[C@@H]3CC[C@H]1[C@@H](OC(=O)Nc1cc([N+](=O)[O-])cc([N+](=O)[O-])c1)C(=O)N2CC3"
> 100 µM

Ok, now "O=C1/C(=C/c2ccccc2)CN(C(=O)OCc2ccccc2)C/C1=C\c1ccccc1"
35.2 µM

Continue with CCOC(=O)C1=C(C)N(NC(N)=O)C2(O)CCCC(=O)C12C (stereo not drawn)
> 100 µM

---

System: NCI-H23 lung
Protocol: NCI tumour cell line growth inhibition, 48 h
Metric Name: TGI

// below: answered compounds
CCOC(=O)c1cnc(-n2[nH]c3c(c2=O)CCCC3)[nH]c1=O: > 100 µM
Cc1cc(C)nc(SC2=C(Nc3cccc(Cl)c3C)C(=O)N(Cc3ccccc3)C2=O)n1: > 160 µM
COc1ccc(Cc2nccc3cc(OC)c(OC)cc23)cc1OC: > 100 µM
Cc1ccc(S(=O)(=O)Oc2nc3ccccc3nc2N(S(=O)(=O)c2ccc(C)cc2)S(=O)(=O)c2ccc(C)cc2)cc1: > 100 µM
O=C(NNC(=O)c1cc(/C=C/c2cccc([N+](=O)[O-])c2)[nH]c(=S)n1)Nc1ccc(Cl)cc1: > 100 µM

Query (compound): CNC1C(O)C(OC2C(N)CC(N)C(OC3OC(C(C)O)C(O)C(O)C3N)C2O)OCC1(C)O (stereo not given) ; field requested: TGI
> 100 µM

Again, but for CN1CCC23c4c5ccc(O)c4OC2c2[nH]c4ccccc4c2CC3(O)C1C5 (stereo not given)
> 100 µM

And for "O=C1CCc2c(sc3[nH]c(=S)n(Cc4ccccc4)c(=O)c23)C1" ?
8.6 µM

Can you handle N#CC(Cc1ccccc1Br)N(CCC1=CCCCC1)C(c1ccccc1)c1ccccc1 (stereo not given) next?
> 100 µM

Query "Cn1ncnc1CCc1ccccc1" next
> 100 µM

---

Tested on: M14 melanoma
Protocol: NCI tumour cell line growth inhibition, 48 h
Metric Name: TGI (µM)
Express your answer in µM, writing the number without its unit.

Look over these answered cases.
CN(CCCNC(=O)c1nn(-c2ccc(Cl)cc2Cl)c2c1ccc1ccccc12)CCCNC(=O)c1nn(-c2ccc(Cl)cc2Cl)c2c1ccc1ccccc12: 3.04
Cc1c(C)c(S(=O)(=O)N(CCCN)OCCCN)c(C)c2c1OC(C)(C)C2: 34.1
C/C=C/C(=O)N1C(=O)OC[C@@H]1c1ccccc1: 36.6

Requested read-out: TGI. Entry: CCCCCCCN1C(=O)C(O)(c2ccc(C3(O)C(=O)N(CCCCCCC)c4ccccc43)s2)c2ccccc21 (configuration not stated)
3.69

Also "CCCCC#CC#Cc1cccc(=O)o1" , if possible.
40.6

Same question, "CN(CCCl)c1ccc(/C=C/C2=[N+](C)c3ccccc3C2(C)C)cc1" this time
14.8

---

Tested on: HT29 colon
Protocol: NCI tumour cell line growth inhibition, 48 h
Recorded TGI values for a group of compounds are listed next.
Please state the figure in µM; there is no need to write the unit.

Below are worked cases with known answers.
CSc1ccc(/C=C/c2ccnc3ccccc23)cc1: 31
C/C(=C\c1ccc(Cl)c(Cl)c1)[N+](=O)[O-]: 5.9
COC1=Nc2ccccc2S(=O)(=O)C=C1: 26.7
COc1ccc(Cn2cc3c(c2-c2cc(OC)c(OC)c(OC)c2)CCc2cnoc2-3)cc1[N+](=O)[O-]: 2.28

GET /values?readout=TGI&item= "O=C1CC(=O)N(CCc2ccccc2)S(=O)(=O)N1CCc1ccccc1"
47.5

Try "CCc1nc(N)nc(N)c1-c1ccc(NCCc2ccccc2)c([N+](=O)[O-])c1" next.
22.4

---

Test system: NCI-H23 lung
Protocol: NCI tumour cell line growth inhibition, 48 h; in the data active means GI50 below about 0.43 µM; inactive means the rest
A correct response names exactly one class from label 1 for active, label 0 for inactive

Please review the entries below; each comes with its answer.
O=C(OCc1ccc2c(Cl)cc(Cl)c(O)c2n1)c1cc2ccccc2[nH]1: label 0
COc1ccc(C(=O)COc2cccc(/C=C3\CSc4ccc(C)cc4C3=O)c2)cc1: label 0
CCCCCCCC(=O)SCC/C=C/[C@@H]1CC(=O)NCc2nc(co2)C2=N[C@@](C)(CS2)C(=O)N[C@@H](C(C)C)C(=O)O1: label 1
COc1ccc(-c2cc(-c3cc(OC)c(OC)c(OC)c3)c(C#N)c(N3CCOCC3)n2)cc1O: label 0
C[C@H]1C(Oc2ccc(O)cc2)OC2OC3(C)CCC4[C@H](C)CCC1C24OO3 (some centres not stated): label 0
O=C1C(Cl)=C(Nc2cccc(O)c2)C(=O)N1c1ccccc1Cl: label 0

Could you check what this test reported for "O=C1CCc2c(sc3[nH]c(=S)n(Cc4ccccc4)c(=O)c23)C1" ?
label 0

---

Here the recorded TGI is given for each entry.
Tested on: SF-268 CNS
Protocol: NCI tumour cell line growth inhibition, 48 h

Study these solved cases before continuing.
N#Cc1ccc(C(c2ccc(C#N)cc2)n2cncn2)cc1: > 5000 µM
Cc1ccc(S(=O)(=O)N2CCCC2C(=O)O[C@H]2CC[C@H]3CC=C[C@H]32)cc1 (stereo partly specified): > 100 µM
COc1cc(/C=C/c2cc(/C=C/c3ccc(O)c(OC)c3)oc(=O)c2)ccc1O: > 39.7 µM

Query for SF-268 CNS: what TGI does the record show for "COc1ccc(Cc2nccc3cc(OC)c(OC)cc23)cc1OC" ?
> 100 µM

And the next one, "O=C1/C(=C/c2ccccc2)CN(C(=O)OCc2ccccc2)C/C1=C\c1ccccc1" ?
30.7 µM

What do you get for "Cn1c(=S)c2[nH]c(SCCN3CCCC3)nc2n(C)c1=O" ?
> 100 µM

---

The entries below are paired with their reported TGI.
System: NCI-H522 lung
Protocol: NCI tumour cell line growth inhibition, 48 h

Use these answered entries as a reference point.
COc1cc([C@@H]2c3cc4c(cc3[C@@H](NC(=O)c3cccc(F)c3)C3COC(=O)[C@@H]32)OCO4)cc(OC)c1O (stereo partly drawn): 3.97 µM
CC1OC(OC2C(O)COC(OC3C(C)OC(OC4C(OC(=O)[C@]56CCC(C)(C)C[C@@H]5C5=CCC7[C@@]8(C)C[C@H](O)[C@H](OC9OC(CO)C(O)C(OC%10OC(CO)C(O)C(O)C%10O)C9O)[C@@](C)(CO)[C@@H]8CC[C@@]7(C)[C@]5(C)CC6)OCC(O)C4O)C(O)C3O)C2O)C(O)C(O)C1O (stereo partly drawn): 31.4 µM

// query TGI value for entry C=CC(C)CCC(C/C=C(\C)CCC=C(C)C)C(=C)CCCC(C)C (stereo not drawn)
> 100 µM

---

System: KM20L2 colon
Protocol: NCI tumour cell line growth inhibition, 48 h
Metric Name: TGI

COC(=O)c1ccc(Cc2ccc(C(=O)OC)o2)o1: > 378 µM
COc1cc(/C=C2/C(=O)N(C(=O)c3ccc(Cl)cc3)N=C2C)cc(OC)c1OC: > 100 µM

Can you share its TGI? I mean this molecule: "c1ccc(-c2nnc(-c3nsc4ccccc34)o2)cc1"
> 100 µM

---

Tested on: SF-539 CNS
Protocol: NCI tumour cell line growth inhibition, 48 h
TGI by entry:

Study these solved cases before continuing.
OC1CN2Cc3cc4c(cc3[C@]13C=C[C@@H](O)CC23)OCO4 (stereo partly specified): > 100 µM
Cc1c2c(n(CCN(C)C)c1C)NN=C(C#N)S2(=O)=O: > 100 µM
O=C(Nc1ccccc1F)c1cc2ccc(O)cc2oc1=Nc1cccc(C(F)(F)F)c1: 22.3 µM
O=C(c1ccc(Br)cc1)n1c2ccc(Br)cc2c2nc3ccccc3nc21: > 100 µM
Nc1nc(Cl)c2nnn(CC3CCC(CO)C3)c2n1 (stereo unspecified): > 100 µM

Please provide the recorded TGI for CCCSC1=NC2C(N(CC)C(=O)N2CC)N1/N=C/C=C/c1ccccc1[N+](=O)[O-] (stereo unspecified) , tested on SF-539 CNS.
5.8 µM

---

System: UO-31 renal
Protocol: NCI tumour cell line growth inhibition, 48 h
Metric Name: TGI

Here are 4 compounds together with their reported answers.
C[C@]12[C@@H]3CC[C@H]1[C@@H](OC(=O)Nc1cc([N+](=O)[O-])cc([N+](=O)[O-])c1)C(=O)N2CC3: > 100 µM
NC(Cc1ccccc1)(C(=O)O)C(=O)O: > 100 µM
S=c1sc2nc(Cl)nc(Cl)c2s1: 25.1 µM
Cc1ccsc1/C=N/Nc1nncc2ccccc12: > 100 µM

API: value(readout= TGI, system= UO-31 renal, query= "COc1ccc(Cc2nccc3cc(OC)c(OC)cc23)cc1OC" )
> 100 µM

Data provenance: PubChem BioAssay (NCI)
